molecular target: OGG1 (8-oxoguanine-DNA glycosylase) (Homo sapiens, UniProt O15527 1-345); experiment: MST; MST: 50 mM Tris-HCl pH 7.5, 50 mM KCl, 1 mM EDTA, 1 mM DTT, 7% glycerol, 25 C, 10 min, 0.5 uM DNA; authors call Kd values estimates only; conditions: protein: recombinant; label: 5'-FAM on strand 2; blunt
Sequence (O15527 whole entry): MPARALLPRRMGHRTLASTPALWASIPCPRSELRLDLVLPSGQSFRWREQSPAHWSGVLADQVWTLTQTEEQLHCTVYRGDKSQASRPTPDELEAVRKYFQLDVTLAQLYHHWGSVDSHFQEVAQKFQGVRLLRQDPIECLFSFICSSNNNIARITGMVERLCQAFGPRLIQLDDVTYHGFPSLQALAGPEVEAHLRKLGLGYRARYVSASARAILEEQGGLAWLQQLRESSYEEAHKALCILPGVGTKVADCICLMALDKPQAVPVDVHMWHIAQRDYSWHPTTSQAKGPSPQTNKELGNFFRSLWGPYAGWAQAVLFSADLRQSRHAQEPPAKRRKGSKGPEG
METRIC_NAME: Kd (nM)
Please respond with the number in nM and leave the unit unwritten.

*Q* Suppose we examine the binder C/G (dsDNA) DNA 1: GCTCACGTACAGAGCTG DNA 2: CAGCTCTGTACGTGAGC ; what Kd value has been reported?
*A* 1400
